Record type: pIC50 measurement. Applies to: human lung cancer strain NCI-H441
Give bare numbers, as −log10 of the molar value.

{"columns": ["Test smiles", "pIC50"],
 "data": [
  ["CCC[C@H]1C(=O)N[C@@H]([C@@H](C)CC)C(=O)N(C)CC(=O)N(C)[C@H]2C/C=C\\CCN(C2=O)[C@@H](Cc2ccc(C(F)(F)F)cc2)C(=O)N(C)CC(=O)N[C@@H](CCc2ccc3sccc3c2)C(=O)N2C[C@H](OCC)C[C@H]2C(=O)NC2(CCC2)C(=O)N(C)[C@@H](C(CC)CC)C(=O)N(C)[C@H](C(=O)N(C)C)CC(=O)N1C", 6.91],
  ["CCO[C@@H]1C[C@H]2C(=O)NC3(CC(C)(C)C3)C(=O)N(C)[C@@H](C3CCCC3)C(=O)N(C)[C@H](C(=O)N3CCCCC3)CC(=O)N(C)[C@@H](COC)C(=O)N[C@@H]([C@@H](C)CC)C(=O)N(C3CC3)CC(=O)N(C)[C@H]3C/C=C\\CCN(C3=O)[C@@H](Cc3ccc(C(F)(F)F)cc3)C(=O)N(C)CC(=O)N[C@@H](CCc3cc(F)c(C(F)(F)F)c(F)c3)C(=O)N2C1", 7.54]
]}

// below: pIC50 requested for another compound
Exercise: For CCO[C@@H]1C[C@H]2C(=O)NC3(CCC3)C(=O)N(C)[C@@H](C(CC)CC)C(=O)N(C)[C@H](C(=O)N(C)C)CC(=O)N(C)[C@@H](CC3CC3)C(=O)N[C@@H]([C@@H](C)CC)C(=O)N(C)CC(=O)N(C)[C@H]3C/C=C\CCN(C3=O)[C@@H](Cc3ccc(C(F)(F)F)cc3)C(=O)N(C)CC(=O)N[C@@H](CCc3cc(F)c(C(F)(F)F)c(F)c3)C(=O)N2C1 , what is its reported pIC50?
Solution: 7.68

----------
Target or test system: GDP-bound KRAS wild-type protein (Homo sapiens, UniProt P01116)
Sequence (P01116 whole entry): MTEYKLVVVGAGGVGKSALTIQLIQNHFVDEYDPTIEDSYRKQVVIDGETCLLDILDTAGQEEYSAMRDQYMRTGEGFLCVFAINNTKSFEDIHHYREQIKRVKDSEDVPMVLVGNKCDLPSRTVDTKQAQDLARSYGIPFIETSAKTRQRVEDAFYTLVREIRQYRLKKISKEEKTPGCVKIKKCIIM
Test summary: Binding to KRAS by surface plasmon resonance (SPR), Single Cycle Kinetics
Condition summary: SPR Single Cycle Kinetics, GDP-bound KRAS wild-type protein, 1:1 binding model; read-out: KRAS KD
Kindly supply the reported Kd values for the records listed here.
One number for each entry, in nM.

{"columns": ["Test smiles", "Unit abbrev", "Kd"],
 "data": [
  ["CC[C@H](C)[C@@H]1NC(=O)[C@H](CC)N(C)C(=O)C[C@@H](C(=O)N(C)C)N(CC)C(=O)[C@H](C2CCCC2)N(C)C(=O)C2(CCC2)NC(=O)[C@@H]2CCCCN2C(=O)[C@H](CCc2cc(F)c(C(F)(F)F)c(F)c2)NC(=O)CN(C)C(=O)[C@H](Cc2ccc(C(F)(F)F)cc2)N2CCCC[C@@H](C2=O)N(C)C(=O)CN(C)C1=O", "nM", 0.34]
]}

// below: Kd requested for another compound
Exercise: For CC[C@H](C)[C@@H]1NC(=O)[C@H](CC(C)C)N(C)C(=O)C[C@@H](C(=O)N2CCOCC2)N(C)C(=O)[C@H](C2CCCC2)N(C)C(=O)C2(CCCC2)NC(=O)[C@@H]2CCCN2C(=O)[C@H](CCc2ccc(C(F)(F)F)c(Cl)c2)NC(=O)CN(C)C(=O)[C@H](Cc2ccc(OC(F)(F)F)cc2)N2CCCC[C@@H](C2=O)N(C)C(=O)CN(C)C1=O , what is its reported Kd?
Solution: 0.63
